Target: SIRT1 (Homo sapiens)
Sequence (Q96EB6 1-747): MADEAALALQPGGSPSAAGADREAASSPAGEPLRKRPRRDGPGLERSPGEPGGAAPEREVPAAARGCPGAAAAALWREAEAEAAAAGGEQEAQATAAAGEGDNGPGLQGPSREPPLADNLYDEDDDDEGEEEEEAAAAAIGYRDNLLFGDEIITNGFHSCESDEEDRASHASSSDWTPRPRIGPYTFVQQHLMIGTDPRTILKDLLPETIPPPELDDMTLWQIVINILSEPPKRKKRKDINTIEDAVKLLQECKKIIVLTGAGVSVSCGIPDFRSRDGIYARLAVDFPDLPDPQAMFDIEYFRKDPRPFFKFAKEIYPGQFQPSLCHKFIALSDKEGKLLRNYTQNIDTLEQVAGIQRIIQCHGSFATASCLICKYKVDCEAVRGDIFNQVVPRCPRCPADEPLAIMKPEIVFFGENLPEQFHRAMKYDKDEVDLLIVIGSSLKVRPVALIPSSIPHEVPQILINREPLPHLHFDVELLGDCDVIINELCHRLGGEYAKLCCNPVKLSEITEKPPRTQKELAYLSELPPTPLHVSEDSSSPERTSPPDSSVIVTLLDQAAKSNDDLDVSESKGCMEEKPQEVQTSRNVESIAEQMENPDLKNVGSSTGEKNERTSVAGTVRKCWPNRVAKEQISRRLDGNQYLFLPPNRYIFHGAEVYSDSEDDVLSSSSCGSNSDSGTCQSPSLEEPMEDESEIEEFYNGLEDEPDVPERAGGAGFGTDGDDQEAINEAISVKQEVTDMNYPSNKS
Test: TAMRA based mass spectrometry assay of SIRT1 activity
Format: biochemical
Settings: TAMRA peptide substrate; concentration giving 150% activation of SIRT1
READOUT LABEL: TAMRA EC1.5

SMILES REPRESENTATION: COc1nccnc1NC(=O)c1cnc2c(C)cc(-c3ccccc3C(F)(F)F)nn12
TEST TARGET: SIRT1 (Homo sapiens)
READOUT LABEL: TAMRA EC1.5
MEASURED: A (EC1.5<1 μM)

SMILES REPRESENTATION: Cc1nc2ccc(-c3ccccc3OC(F)(F)F)nn2c1C(=O)Nc1ccncn1
TEST TARGET: SIRT1 (Homo sapiens)
READOUT LABEL: TAMRA EC1.5
MEASURED: A (EC1.5<1 μM)

SMILES REPRESENTATION: O=C(Nc1cnn2ccc(-c3ccccc3OC(F)(F)F)nc12)c1cccnc1
TEST TARGET: SIRT1 (Homo sapiens)
READOUT LABEL: TAMRA EC1.5
MEASURED: B (EC1.5 1-25 μM)

SMILES REPRESENTATION: O=C(Nc1cccc(OC(CO)CO)n1)c1cnc2ccc(-c3ccccc3C(F)(F)F)nn12
TEST TARGET: SIRT1 (Homo sapiens)
READOUT LABEL: TAMRA EC1.5
MEASURED: A (EC1.5<1 μM)

SMILES REPRESENTATION: O=C(Nc1cnc2ccc(-c3ccccc3C(F)(F)F)nn12)c1cccc(-n2cnnc2)n1
TEST TARGET: SIRT1 (Homo sapiens)
READOUT LABEL: TAMRA EC1.5
MEASURED: A (EC1.5<1 μM)

SMILES REPRESENTATION: Cc1ccnc(C(=O)Nc2cnn3ccc(-c4ccccc4C(F)(F)F)nc23)c1
TEST TARGET: SIRT1 (Homo sapiens)
READOUT LABEL: TAMRA EC1.5
MEASURED: A (EC1.5<1 μM)

GET /values?readout=TAMRA EC1.5&item= Cc1cc(C)nc(NC(=O)c2cnc3c(C)cc(-c4ccccc4C(F)(F)F)nn23)c1
A (EC1.5<1 μM)

# input compound: Cc1cc(C)nc(C(=O)Nc2cnn3ccc(-c4ccccc4C(F)(F)F)nc23)c1 ; wanted: its TAMRA EC1.5
A (EC1.5<1 μM)

Field request: TAMRA EC1.5 | item: Cc1cc(-c2ccccc2C(F)(F)F)nn2c(NC(=O)c3cscn3)cnc12
A (EC1.5<1 μM)

Quick one: TAMRA EC1.5 for O=C(Nc1ccncc1)c1cnn2ccc(-c3ccccc3OC(F)(F)F)nc12 ?
A (EC1.5<1 μM)

Looking for the measured TAMRA EC1.5 of Cc1nc2c(C)cc(-c3ccccc3C(F)(F)F)nn2c1C(=O)Nc1cccc(N2CC3(CCO3)C2)n1 , can you help?
A (EC1.5<1 μM)

Find the recorded TAMRA EC1.5 belonging to COc1cccc(C(=O)Nc2cnn3ccc(-c4ccccc4C(F)(F)F)nc23)n1 and report it.
A (EC1.5<1 μM)
